Data origin, for the record: patent US9708293B2

test-protocol: Caco-2 permeation assay
Assay type: in vitro ADME
test-settings: human, pH 7.2; Caco-2, test compound 2 μM, 2h incubation, basolateral to apical; read-out: Papp B-A (Mari)
readout-name: Papp B→A at 2 h, 2 μM

• COc1cc(F)ccc1-c1cc(Nc2cc(CS(C)(=O)=O)ccn2)ncn1 [Example 1] = 19.1 ×10⁻⁶ cm/s

* * *

Test system: MOLM13 cells
test-protocol: Proliferation assay, MOLM-13
Format: cell-based
test-settings: Homo sapiens, 72-hour exposure, Cell Titre-Glo, read-out: Inhibition of MOLM13 cell proliferation IC50
Procedure: Non-adherent MOLM-13 human acute myeloid leukemia cells (DSMZ ACC 554) were seeded at a density of 5,000 cells/well in a 96-well multititer plate in 100 μL of growth medium supplemented 10% fetal calf serum. […] Cell viability was assessed after 72-hour exposure with the Cell Titre-Glo Luminescent Cell Viability Assay (Promega). […]
pIC50: −log10 of the molar value.
readout-name: pIC50

- COc1cc(F)ccc1-c1cc(Nc2cc(CS(C)(=O)=O)cc(C(F)(F)F)n2)ncn1: 7.74

* * *

tgt: CDK2/CycE (Homo sapiens)
Construct: GST; purchased ProQinase GmbH (Freiburg, Germany); host or cells: insect cells (Sf9)
test-protocol: CDK2/CycE kinase assay (Method 2a)
Assay type: biochemical
test-settings: 10 μM ATP
pIC50: −log10 of the molar value.
readout-name: pIC50

* COc1cc(F)ccc1-c1cc(Nc2cc(CS(C)(=O)=O)cc(C)n2)ncn1 | 7.05
* COc1cc(F)ccc1-c1cc(Nc2cc(CS(C)(=O)=O)cc(C(F)(F)F)n2)ncn1 | 7.14
* COc1cc(F)ccc1-c1cc(Nc2cc(CS(C)(=O)=O)cc(F)n2)ncn1 | 7.04
* COc1cc(F)ccc1-c1cc(Nc2cc(CS(C)(=O)=O)ccn2)ncn1 | 6.55

* * *

tgt: CDK9/CycT1 (Homo sapiens)
Construct: Recombinant full-length His-tagged human CDK9 and CycT1; His; purchased Invitrogen PV4131; host or cells: insect cells
Sequence (P50750 whole entry): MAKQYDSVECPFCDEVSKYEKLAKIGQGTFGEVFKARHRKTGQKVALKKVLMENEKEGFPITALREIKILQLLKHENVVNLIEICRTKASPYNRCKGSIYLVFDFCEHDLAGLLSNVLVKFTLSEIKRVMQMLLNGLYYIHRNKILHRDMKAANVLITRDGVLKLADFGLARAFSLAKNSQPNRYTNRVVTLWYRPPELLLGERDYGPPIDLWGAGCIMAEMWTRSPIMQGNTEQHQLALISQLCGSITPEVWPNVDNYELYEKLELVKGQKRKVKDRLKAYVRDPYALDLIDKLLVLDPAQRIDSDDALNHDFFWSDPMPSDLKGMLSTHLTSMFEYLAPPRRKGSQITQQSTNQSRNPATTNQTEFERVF
Sequence (O60563 whole entry partner): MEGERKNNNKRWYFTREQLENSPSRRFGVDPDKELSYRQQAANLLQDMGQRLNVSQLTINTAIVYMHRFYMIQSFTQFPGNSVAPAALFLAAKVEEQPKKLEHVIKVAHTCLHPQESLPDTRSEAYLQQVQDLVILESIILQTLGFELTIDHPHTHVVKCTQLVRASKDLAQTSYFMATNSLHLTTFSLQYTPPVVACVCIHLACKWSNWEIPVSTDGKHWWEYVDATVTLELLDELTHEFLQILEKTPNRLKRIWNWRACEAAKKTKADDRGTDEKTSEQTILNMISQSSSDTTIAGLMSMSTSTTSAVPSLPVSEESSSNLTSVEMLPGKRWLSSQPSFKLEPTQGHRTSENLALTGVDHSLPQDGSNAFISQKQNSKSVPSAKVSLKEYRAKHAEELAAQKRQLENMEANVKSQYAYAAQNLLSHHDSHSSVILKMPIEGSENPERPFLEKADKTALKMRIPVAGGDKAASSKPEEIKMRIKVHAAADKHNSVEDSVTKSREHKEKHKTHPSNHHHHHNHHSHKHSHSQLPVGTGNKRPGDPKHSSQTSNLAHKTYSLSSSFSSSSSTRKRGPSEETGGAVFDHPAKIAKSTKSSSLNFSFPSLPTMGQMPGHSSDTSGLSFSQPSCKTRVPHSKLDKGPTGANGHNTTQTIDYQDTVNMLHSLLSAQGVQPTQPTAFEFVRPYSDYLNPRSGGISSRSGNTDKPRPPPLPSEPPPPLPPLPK
test-protocol: CDK9/CycT1 kinase assay (Method 1a)
Format: biochemical
test-settings: 10 μM ATP
Below, each entry is listed with its recorded IC50.
readout-name: IC50

• COc1cc(F)ccc1-c1cc(Nc2cc(CS(C)(=O)=O)ccn2)ncn1 = 3 nM
• COc1cc(F)ccc1-c1cc(Nc2cc(CS(C)(=O)=O)cc(C(F)(F)F)n2)ncn1 = 4 nM
• COc1cc(F)ccc1-c1cc(Nc2cc(CS(C)(=O)=O)cc(F)n2)ncn1 = 3 nM

* * *

Below, each entry is listed with its recorded IC50.
tgt: CDK2/CycE (Homo sapiens)
Construct: GST; purchased ProQinase GmbH (Freiburg, Germany); host or cells: insect cells (Sf9)
test-protocol: CDK2/CycE high ATP kinase assay (Method 2b)
Format: biochemical
test-settings: 2 mM ATP, read-out: high ATP CDK2: CDK2/CycE1 kinase assay IC50
readout-name: IC50 (nM)

• COc1cc(F)ccc1-c1cc(Nc2cc(CS(C)(=O)=O)cc(F)n2)ncn1 = 1870
• COc1cc(F)ccc1-c1cc(Nc2cc(CS(C)(=O)=O)cc(C(F)(F)F)n2)ncn1 = 371
• COc1cc(F)ccc1-c1cc(Nc2cc(CS(C)(=O)=O)cc(C)n2)ncn1 = 2250

* * *

tgt: CDK9/CycT1 (Homo sapiens)
Construct: Recombinant full-length His-tagged human CDK9 and CycT1; His; purchased Invitrogen PV4131; host or cells: insect cells
test-protocol: CDK9/CycT1 high ATP kinase assay (Method 1b)
Format: biochemical
test-settings: 2 mM ATP
pIC50: −log10 of the molar value.
readout-name: pIC50

• COc1cc(F)ccc1-c1cc(Nc2cc(CS(C)(=O)=O)ccn2)ncn1 = 7.80
• COc1cc(F)ccc1-c1cc(Nc2cc(CS(C)(=O)=O)cc(F)n2)ncn1 = 7.96
• COc1cc(F)ccc1-c1cc(Nc2cc(CS(C)(=O)=O)cc(C(F)(F)F)n2)ncn1 = 8.70
• COc1cc(F)ccc1-c1cc(Nc2cc(CS(C)(=O)=O)cc(C)n2)ncn1 = 8.70
